biological target: Gal(b1-4)GlcNAc(b1-3)Gal(b1-3)GalNAc; assay: glycan array binding signal (z-score within array); higher = stronger binding; details: glycan notation: IUPAC condensed, linker removed
Shown is part of a subset that was picked to be rich in the strongest signals.
Each item that follows carries a reported glycan array binding signal (z-score).

binder	glycan array binding signal (z-score)
MGL2 (Mus musculus), Q8JZN1 (protein) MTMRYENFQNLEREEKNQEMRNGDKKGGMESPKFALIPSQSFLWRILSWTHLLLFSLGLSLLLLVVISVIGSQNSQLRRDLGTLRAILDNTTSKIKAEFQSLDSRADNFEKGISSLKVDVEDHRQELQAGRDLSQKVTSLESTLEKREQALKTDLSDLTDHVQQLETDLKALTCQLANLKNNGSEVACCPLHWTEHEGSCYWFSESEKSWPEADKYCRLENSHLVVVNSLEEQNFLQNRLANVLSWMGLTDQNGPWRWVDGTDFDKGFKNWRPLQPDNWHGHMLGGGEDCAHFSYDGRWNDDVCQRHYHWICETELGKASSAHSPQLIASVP	-0.14
OGAA (protein) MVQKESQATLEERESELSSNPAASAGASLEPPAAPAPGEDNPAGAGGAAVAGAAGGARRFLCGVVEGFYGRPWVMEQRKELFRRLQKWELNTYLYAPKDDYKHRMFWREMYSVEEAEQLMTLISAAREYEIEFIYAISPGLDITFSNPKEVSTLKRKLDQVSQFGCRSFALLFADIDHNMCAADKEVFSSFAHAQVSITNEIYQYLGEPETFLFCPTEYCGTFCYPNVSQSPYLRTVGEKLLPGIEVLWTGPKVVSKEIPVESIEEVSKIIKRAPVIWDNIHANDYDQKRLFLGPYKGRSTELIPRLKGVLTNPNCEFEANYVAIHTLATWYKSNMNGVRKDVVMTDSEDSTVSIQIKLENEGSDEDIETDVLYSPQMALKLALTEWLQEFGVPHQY	-0.11
